system: U251 CNS; assay: NCI tumour cell line growth inhibition, 48 h
Known GI50 of a selection of molecules

Here are 2 molecules together with their reported answers.
smiles_notation	GI50
CC(=O)Nc1cc(C(c2ccccc2)c2ccccc2)cc(C(c2ccccc2)c2ccccc2)c1C	7.63 µM
O=Cc1c[nH]c2ccc(-c3csc4ccccc34)cc12	3.64 µM

I have this molecule here, COc1ccccc1N(C(C)=O)C1=C(Cl)C(=O)c2ccccc2C1=O , and I need its recorded GI50.
2.62 µM

Now try O=S1CCN(Cc2ccc(-c3ccc4ncnc(Nc5ccc(OCc6ccccc6)c(F)c5)c4c3)o2)CC1 .
13.9 µM

* * *

system: RXF 393 renal; assay: NCI tumour cell line growth inhibition, 48 h
measured_quantity: TGI (µM)
Answer format: numeric, µM implied, no suffix.

molecule	units_symbol	TGI
O=C(N/N=C/c1ccncc1)c1ccc(C(F)(F)F)nc1Nc1cccc(C(F)(F)F)c1	µM	5.28

Now for a further molecule.
I have this molecule here, COc1ccc(/C=C/c2ccnc3ccccc23)cc1 , and I need its recorded TGI.
35.4
